Recorded measurements of Difference between acid dissociation constant a1 and acid dissociation constant a2, one per entry
# assayProcedure: Acid dissociation constant (pKa) determined by computation (ACD/Labs Software Package 1; Gaussian 16 DFT where not calculable)
# experimentalConditions: acid generated from photoacid generator B

Completed entries (count: 2):
O=C(O)C(F)(F)C(F)(F)C(F)(F)C(=O)OC12CC3CC(CC(COC(=O)C(F)(F)S(=O)(=O)O)(C3)C1)C2 | 2.92
CS(=O)(=O)[N-]C(=O)C(F)(F)C(F)(F)C(F)(F)C(=O)OCC(F)S(=O)(=O)[O-].c1ccc([S+](c2ccccc2)c2ccccc2)cc1.c1ccc([S+](c2ccccc2)c2ccccc2)cc1 (stereo not drawn) | 2.55

Here is the next item to consider.
Challenge: Item "O=C([O-])CCCOC(=O)C(CS(=O)(=O)[O-])C(F)(F)F.O=S(=O)(c1ccc([S+](c2ccccc2)c2ccccc2)cc1)C1CCCCC1.O=S(=O)(c1ccc([S+](c2ccccc2)c2ccccc2)cc1)C1CCCCC1" has what recorded Difference between acid dissociation constant a1 and acid dissociation constant a2?
Response given: 3.63
